The reported measurements were obtained from paper PMC2607524.

target-of-assay: T1, cruzipain (Trypanosoma cruzi, UniProt P25779 123-467)
T1 construct: also called T. cruzi CP cruzipain; major cysteine peptidase of T. cruzi
T1 sequence (P25779 123-467): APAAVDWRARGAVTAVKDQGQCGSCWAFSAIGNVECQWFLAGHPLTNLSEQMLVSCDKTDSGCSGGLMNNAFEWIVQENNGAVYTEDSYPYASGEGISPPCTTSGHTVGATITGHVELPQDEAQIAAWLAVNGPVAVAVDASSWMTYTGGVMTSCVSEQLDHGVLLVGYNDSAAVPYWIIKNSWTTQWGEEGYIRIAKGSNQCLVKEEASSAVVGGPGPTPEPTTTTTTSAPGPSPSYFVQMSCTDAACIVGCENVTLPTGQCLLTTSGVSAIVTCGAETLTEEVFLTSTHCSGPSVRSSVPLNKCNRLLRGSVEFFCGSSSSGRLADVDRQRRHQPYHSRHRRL
measurement-description: enzyme inhibition kinetics (Ki for tight-binding inhibitors); peptidase incubated with different chagasin concentrations for 15 min at room temperature, residual hydrolysis of 5 μM Z-Phe-Arg-MCA; Ki from Kiapp with KM 1.5, 2.5 and 60 μM for cruzipain, cathepsin L and papain; methods: RB buffer (50 mM Na2PO4, pH 6.5, 200 mM NaCl, 5 mM EDTA, 2.5 mM DTT), 25 °C; footnote of Table 2: 50 mM Na2HPO4, 100 mM NaCl, 5 mM …
study-conditions: both partners purified
# Ki per record follows

binder	value-unit	Ki
chagasin T32A (natural protein, pQE30 construct as m1; also called pGL1211; source: E. coli M15/pRep4, purified (Ni metal chelate column, HQ ion exchange)) MSHKVTKAHNGATLTVAVGELVEIQLPSNPTAGFAWYFEGGTKESPNESMFTVENKYFPPDSKLLGAGGTEHFHVTVKAAGTHAVNLTYMRPWTGPSHDSERFTVYLKAN	nM	0.016
chagasin (recombinant His-tagged wild type) (natural protein, also called WT; wild type chagasin; source: E. coli M15/pRep4, purified (Ni metal chelate column, HQ ion exchange)) MSHKVTKAHNGATLTVAVGELVEIQLPSNPTTGFAWYFEGGTKESPNESMFTVENKYFPPDSKLLGAGGTEHFHVTVKAAGTHAVNLTYMRPWTGPSHDSERFTVYLKAN	nM	0.0076
chagasin T31S (natural protein, pQE30 construct as m1; also called pGL1299; source: E. coli M15/pRep4, purified (Ni metal chelate column, HQ ion exchange)) MSHKVTKAHNGATLTVAVGELVEIQLPSNPSTGFAWYFEGGTKESPNESMFTVENKYFPPDSKLLGAGGTEHFHVTVKAAGTHAVNLTYMRPWTGPSHDSERFTVYLKAN	nM	0.011
